# ASSAY NOTES: amyloid nucleation score (Sup35N fusion, yeast selection) (log enrichment); library NNK2; higher = more nucleation; inactive = no reads after selection;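 further: zero at mode of non-aggregating sequences after 7 days selection at 30°C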
Quick rule for you: amyloid nucleation score at -0.06 or higher means TRUE, lower means FALSE.

Solved cases (5 shown):
SUBSTANCE | LABEL CLASS
QEVELGMGPKRGETVKEVDL | TRUE
ASDRWMVYLIHVTSCYVLRV | FALSE
AYILAVVCPVVRKIGSQYDE | TRUE
YYHIDYYRYWPALLGCFKYS | FALSE
LVHSLDFL | FALSE

For this substance, is measured amyloid nucleation score -0.06 or higher? GWRLTRDRVG TRUE

Please check the record FECVAFSAV and state if its amyloid nucleation score is at or above -0.06. FALSE

Determine whether measured amyloid nucleation score meets or exceeds -0.06 for LERFSATYLKAWSGGVCVRV FALSE

Has NYSIFDWTCSSKMSIITCAK a recorded amyloid nucleation score greater than or equal to -0.06? TRUE

###

# ASSAY NOTES: amyloid nucleation score (Sup35N fusion, yeast selection) (log enrichment); library NNK2; higher = more nucleation; inactive = no reads after selection
READOUT KIND: amyloid nucleation score

SUBSTANCE | RESULT
LFNGTMY | inactive
SLGALNKFPRILIVVRYRVC | inactive
FWHLYPQCQDWSDLQN | inactive

###

# ASSAY NOTES: amyloid nucleation score (Sup35N fusion, yeast selection) (log enrichment); library NNK2; higher = more nucleation; inactive = no reads after selection
READOUT KIND: amyloid nucleation score

SUBSTANCE | amyloid nucleation score
VRSVCRGTHFSK | 0.711
GSWFVPRMSLSWAGSETGPQ | inactive
HSQRNP | inactive
YSYPRS | inactive
ACSVNCLRECNR | inactive

For the next question, use this substance.
Specify amyloid nucleation score for NDCMGWH and stop. inactive

###

# ASSAY NOTES: amyloid nucleation score (Sup35N fusion, yeast selection) (log enrichment); library NNK3; higher = more nucleation; inactive = no reads after selection
READOUT KIND: amyloid nucleation score

Consider the following illustrative entries.
SUBSTANCE | READOUT KIND | RESULT
CNGLFIGPML | amyloid nucleation score | inactive
SQWIGFIEGCGNWMGYLACV | amyloid nucleation score | inactive
VLKLRVKVNQVVVDYVLESG | amyloid nucleation score | inactive
GISRLFVGMKKAVTWSAKER | amyloid nucleation score | inactive
SSGAQQCILISSLVLNEDWL | amyloid nucleation score | -0.46
RILRVRF | amyloid nucleation score | inactive
QQVVSLEGRRTKVTLTYQGS | amyloid nucleation score | 1.04
QRVMFFCAMSLNKPRSV | amyloid nucleation score | inactive
FNDLSAVFYLQGLKLDL | amyloid nucleation score | inactive
KQPCCNVFCC | amyloid nucleation score | 2.42

Return amyloid nucleation score (reported value) for this substance: PMQTSNLNYCVCYCCAVRTF 0.88

Supply measured amyloid nucleation score of ARRNYHRAINFGGSCAIINK in your reply. inactive

Let me know recorded amyloid nucleation score for ANSYHWTVFVRMFSQDIVNI , thanks. inactive

###

# ASSAY NOTES: amyloid nucleation score (Sup35N fusion, yeast selection) (log enrichment); library NNK3; higher = more nucleation; inactive = no reads after selection
READOUT KIND: amyloid nucleation score

SUBSTANCE | RESULT
FFALPDLALYNFFFCNPHYL | 2.27
ASYYVKEFVQREHSIYAN | inactive
PHCPELEQQVKCGTS | 0.178
SCLTIGWLNVVSFWI | 1.97
CRIYCLLPISMIGSCSFIVH | inactive

Find the measured amyloid nucleation score of SRWEKSFALICAS and report it. inactive

For the substance RRNMYLL , give its measured amyloid nucleation score value. -1.31

For the substance SNWVLACYKI , give its reported amyloid nucleation score. inactive

Fill in reported amyloid nucleation score for this entry: SLGEKMNVASLQAVMSC inactive

State its amyloid nucleation score: PNYPDLYHFLICSLCSSFVT 1.84

Identify measured amyloid nucleation score associated with ATLYNSVRLC inactive

Answer with reported amyloid nucleation score of VEKCSVCLPTFEGWPLSKRF inactive

Specify reported amyloid nucleation score for the substance shown: WLWTLYDG inactive

Query amyloid nucleation score for RMCLITTYTRVFLWLHT inactive

Dear colleague, please send me the reported amyloid nucleation score for LKNVTDKMHTYLRLEGSRHV when you can. inactive

Given the substance MRNLGGLCIALPEVVEGTDF , write its reported amyloid nucleation score. inactive

Using known records, supply amyloid nucleation score for RLAGSFKLKSVYKGMLDYLA 0.819

Please give the documented amyloid nucleation score of SCKVTKHGYVKEDFIGLCSY inactive

Indicate the recorded amyloid nucleation score value for this substance: VCSSGQKSLKMLRIFHIFNP -0.352

Give the reported value of amyloid nucleation score for this record: SNFGTNSIYMCTAMIPM inactive

Please list amyloid nucleation score recorded for the substance MRSMVKLSCDERVCFVISGE inactive

// fetch amyloid nucleation score given entry FVGHDTELNPHGRYGCLD inactive

Tell me amyloid nucleation score reported for HWCVPL inactive

State its amyloid nucleation score for this substance: WLLTNNLDCQCCMCLDWMWC 2.81
